Sourced from patent US7825279B2

tested on: poly dA-dT; assay: DNA ΔTm poly dA-dT; format: binding; parameters: unit not given here
QUANTITY MEASURED: DNA ΔTm poly dA-dT

[[record]]
molecule = "Cl.Cl.N=C(N)Nc1ccc2c(c1)C(=O)c1cc(NC(=N)N)ccc1-2"
quantity_measured = "DNA ΔTm poly dA-dT"
value_observed = 6.1

[[record]]
molecule = "CCOC(=O)NC(=NC(C)C)Nc1ccc2c(c1)Cc1cc(NC(=NC(C)C)NC(=O)OCC)ccc1-2"
quantity_measured = "DNA ΔTm poly dA-dT"
value_observed = "−0.5"

[[record]]
molecule = "CC(C)NC(=N)Nc1ccc2c(c1)Cc1cc(NC(=N)NC(C)C)ccc1-2"
quantity_measured = "DNA ΔTm poly dA-dT"
value_observed = 9.3

[[record]]
molecule = "CCOC(=O)NC(=N)Nc1ccc2c(c1)Cc1cc(NC(=N)NC(=O)OCC)ccc1-2"
quantity_measured = "DNA ΔTm poly dA-dT"
value_observed = 0.3

[[record]]
molecule = "Cl.Cl.N=C(N)Nc1ccc2c(c1)Cc1cc(NC(=N)N)ccc1-2"
quantity_measured = "DNA ΔTm poly dA-dT"
value_observed = 13.6

[[record]]
molecule = "CCOC(=O)NC(=N)Nc1ccc2c(c1)C(=O)c1cc(NC(=N)NC(=O)OCC)ccc1-2"
quantity_measured = "DNA ΔTm poly dA-dT"
value_observed = "−0.3"

[[record]]
molecule = "Cl.Cl.Cl.N=C(N)Nc1ccc2cc3ccc(NC(=N)N)cc3nc2c1"
quantity_measured = "DNA ΔTm poly dA-dT"
value_observed = 7.7

[[record]]
molecule = "c1ccc(N=Nc2ccc3c(c2)Cc2cc(N=Nc4ccccc4)ccc2-3)cc1 [Compound 9a, 2,7-Bis[(phenylimino)amino]-9H-fluorene]"
quantity_measured = "DNA ΔTm poly dA-dT"
value_observed = 22

[[record]]
molecule = "c1ccc(N=Nc2ccc3c(c2)Cc2cc(N=Nc4ccccn4)ccc2-3)nc1"
quantity_measured = "DNA ΔTm poly dA-dT"
value_observed = 15.2

[[record]]
molecule = "CNC(=N)Nc1ccc2c(c1)Cc1cc(NC(=N)NC)ccc1-2"
quantity_measured = "DNA ΔTm poly dA-dT"
value_observed = 10.1

[[record]]
molecule = "Cl.Cl.N=C(N)Nc1ccc2c(c1)C(=O)c1cc(NC(=N)N)ccc1C2=O"
quantity_measured = "DNA ΔTm poly dA-dT"
value_observed = 7.2


---

test system: virulent STIP90° strain of T.b.r.; test: in vivo T.b.r. mouse model
Classification field: TRUE = In vivo T.b.r. survival days at or over 20 days; FALSE = In vivo T.b.r. survival days under 20 days.

[[record]]
compound = "CNC(=N)Nc1ccc2c(c1)Cc1cc(NC(=N)NC)ccc1-2"
class = "TRUE"

[[record]]
compound = "Cl.Cl.N=C(N)Nc1ccc2c(c1)C(=O)c1cc(NC(=N)N)ccc1C2=O"
class = "TRUE"

[[record]]
compound = "c1ccc(N=Nc2ccc3c(c2)Cc2cc(N=Nc4ccccc4)ccc2-3)cc1 [Compound 9a, 2,7-Bis[(phenylimino)amino]-9H-fluorene]"
class = "FALSE"

[[record]]
compound = "Cl.Cl.Cl.N=C(N)Nc1ccc2cc3ccc(NC(=N)N)cc3nc2c1"
class = "FALSE"

[[record]]
compound = "CC(C)NC(=N)Nc1ccc2c(c1)Cc1cc(NC(=N)NC(C)C)ccc1-2"
class = "TRUE"

[[record]]
compound = "CCOC(=O)NC(=N)Nc1ccc2c(c1)C(=O)c1cc(NC(=N)NC(=O)OCC)ccc1-2"
class = "FALSE"

[[record]]
compound = "Cl.Cl.N=C(N)Nc1ccc2c(c1)Cc1cc(NC(=N)N)ccc1-2"
class = "FALSE"

[[record]]
compound = "Cl.Cl.N=C(N)Nc1ccc2c(c1)C(=O)c1cc(NC(=N)N)ccc1-2"
class = "TRUE"

[[record]]
compound = "CCOC(=O)NC(=NC(C)C)Nc1ccc2c(c1)Cc1cc(NC(=NC(C)C)NC(=O)OCC)ccc1-2"
class = "FALSE"

[[record]]
compound = "CCOC(=O)NC(=N)Nc1ccc2c(c1)Cc1cc(NC(=N)NC(=O)OCC)ccc1-2"
class = "FALSE"


---

system: Plasmodium falciparum; experiment: in vitro IC50 versus Plasmodium falciparum (P.f.); format: cell-based; conditions: Plasmodium falciparum; in vitro; read-out: IC-50 versus Plasmodium falciparum (p.f.)
pIC50: −log10 of the molar value.
QUANTITY MEASURED: pIC50

[[record]]
molecule = "Cl.Cl.N=C(N)Nc1ccc2c(c1)Cc1cc(NC(=N)N)ccc1-2 [Compound 5a, Dihydrochloride]"
value_observed = "≥ 8.00"

